Measured values drawn from PubChem BioAssay AID686940 for this set.

Molecular target: COUP transcription factor 2 (Homo sapiens) (UniProt P24468)
Sequence (P24468 whole entry, looked up): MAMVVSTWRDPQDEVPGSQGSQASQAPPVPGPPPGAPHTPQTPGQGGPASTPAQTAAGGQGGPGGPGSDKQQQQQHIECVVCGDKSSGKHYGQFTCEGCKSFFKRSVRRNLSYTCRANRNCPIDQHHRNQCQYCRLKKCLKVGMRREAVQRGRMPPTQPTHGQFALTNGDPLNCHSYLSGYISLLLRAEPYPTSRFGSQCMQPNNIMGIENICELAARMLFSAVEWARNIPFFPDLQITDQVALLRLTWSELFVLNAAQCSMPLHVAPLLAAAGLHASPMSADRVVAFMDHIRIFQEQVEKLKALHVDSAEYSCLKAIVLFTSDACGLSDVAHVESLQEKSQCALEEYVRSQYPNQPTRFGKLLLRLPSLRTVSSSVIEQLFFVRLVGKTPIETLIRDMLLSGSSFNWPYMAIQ
Assay: COUP-TFII reporter suppression in human cells – cell-based, luciferase reporter, HEK293T, luminescence, primary screen (AID 686940);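 also: cells cotransfected with COUP-TFII expression vector driving the NGFI-A reporter; 0% = median of COUP-TF2 test wells and 100% = reporter-only cells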
Conditions: HEK293T NGFI-A luciferase reporter, at 8.6 µM, stronger effect = higher value
In all, about 370,000 compounds went through this assay and about 2,600 (0.7%) were called active. Shown is part of a subset that was picked to be rich in actives.
reported_property: inhibition (%)
Kindly answer with a numeric value in %, unit omitted.

The compound listed as `O=C(NCCc1ccc(F)cc1)c1ccc(S(=O)(=O)N2CCCCC2)cc1` shows inhibition equal to -1.06

The compound listed as `COC(=O)[C@]12C[C@H](CC(=O)NCCCN3CCCC3=O)C(=O)N(CCc3ccc(OC)c(OC)c3)C1=C[C@H](COCc1ccccc1)O[C@@H]2C` shows inhibition equal to -3.72

The compound listed as `COC(=O)C[C@@H]1CC[C@@H]2[C@@H](COc3ccc(NC(=O)Nc4ccc(F)c(F)c4)cc3C(=O)N2C)O1` shows inhibition equal to 4.71

The compound listed as `CCCCN1CCN(C(=O)c2ccc3c(c2)NC(=O)C(C)(C)O3)CC1` shows inhibition equal to -23.3

The compound listed as `CCOC(=O)[C@]12CCCC3=C1N(CCC3)C(=O)[C@@H](CC(=O)N1CCSCC1)C2` shows inhibition equal to -5.73

The compound listed as `CCc1ccc(-c2nc(SCC(=O)NC3CCCC3)n[nH]2)cc1` shows inhibition equal to 53.3

The compound listed as CCC(C)[C@@H](C(=O)OC)N(CCc1cn(Cc2ccccc2)nn1)S(=O)(=O)c1ccccc1Br (stereo partly drawn) shows inhibition equal to -9.93

The compound listed as CC(=O)O[C@@]1(C(C)=O)CCC2[C@H]3C=C(C)C4=CC(=O)CC[C@@]4(C)C3CC[C@]21C (stereo partly drawn) shows inhibition equal to 3.66

The compound listed as `COc1ccc(CN2C/C(=C/c3ccccc3)N3C(=O)C[C@@H](c4ccccc4)N=C23)c(OC)c1` shows inhibition equal to 4.08

The compound listed as CCCC1CCC2(CCCN2CCOC(=O)NCc2ccccc2)CC1 (stereo not drawn) shows inhibition equal to -2.03

The compound listed as `CCn1c(=O)n2n(c1=O)[C@@]1(C=C3CCCC[C@H]32)N=C(NC(=O)c2ccccc2)N(Cc2ccccc2)[C@H]1Cc1ccccc1` shows inhibition equal to 22.3

The compound listed as `O=C(CN1CCCc2ccccc21)NCc1ccc(F)cc1` shows inhibition equal to 5.12

The compound listed as `COC(=O)[C@]12C[C@H](CC(=O)N3CCN(C(=O)C4CC4)CC3)C(=O)N(CCC3=CCCCC3)C1=C[C@H](C(C)C)O[C@@H]2C1CC1` shows inhibition equal to 5.77

The compound listed as `NS(=O)(=O)c1ccc(CCNC(=O)c2ccc(Cl)c(S(=O)(=O)N3CCCCCC3)c2)cc1` shows inhibition equal to 60.3

The compound listed as `Cc1ccc(NC(=O)Nc2cc(C)nn2-c2ccccc2)cc1` shows inhibition equal to -17.6

The compound listed as `COc1ccccc1CNC(=O)c1ccc(Cl)c(S(=O)(=O)N2CCCC2)c1` shows inhibition equal to 0.19

The compound listed as `COC(=O)[C@]12C[C@H](CC(=O)N3CCOCC3)C(=O)N(Cc3ccc(Cl)cc3Cl)C1=C[C@H](COCc1ccccc1)O[C@@H]2C` shows inhibition equal to -11.3

The compound listed as `COC(=O)[C@H](C(C)C)N(CCc1cn(Cc2ccccc2)nn1)S(=O)(=O)c1ccc(F)cc1Br` shows inhibition equal to -0.51
